Sourced from patent US11104682B2

# EXPERIMENT: Solubility of Compound I maleate salt in solvents (saturated solution, HPLC)
# Type: physicochemical
# COND: 50 °C, organic solvent or mixture, thermodynamic from solid; solvent Methanol; 50±1° C., 24 hours
Where a name gives a salt, the structure may show the parent alone.

# COMPOUND, UNIT_SPEC, solubility at 24 h
data = [
    ("CC(C)C(=O)N1CCC(c2cc(-c3ccc(NC(=O)c4cn(C(C)C)c(=O)n(-c5ccccn5)c4=O)cc3)c3c(N)ncnn23)CC1 [Compound I maleate salt]", "µg/mL", 3090),
]

---

# TARGET_OR_TEST_SYSTEM: Axl (Homo sapiens (Human), UniProt P30530)
# Sequence (P30530 26-894): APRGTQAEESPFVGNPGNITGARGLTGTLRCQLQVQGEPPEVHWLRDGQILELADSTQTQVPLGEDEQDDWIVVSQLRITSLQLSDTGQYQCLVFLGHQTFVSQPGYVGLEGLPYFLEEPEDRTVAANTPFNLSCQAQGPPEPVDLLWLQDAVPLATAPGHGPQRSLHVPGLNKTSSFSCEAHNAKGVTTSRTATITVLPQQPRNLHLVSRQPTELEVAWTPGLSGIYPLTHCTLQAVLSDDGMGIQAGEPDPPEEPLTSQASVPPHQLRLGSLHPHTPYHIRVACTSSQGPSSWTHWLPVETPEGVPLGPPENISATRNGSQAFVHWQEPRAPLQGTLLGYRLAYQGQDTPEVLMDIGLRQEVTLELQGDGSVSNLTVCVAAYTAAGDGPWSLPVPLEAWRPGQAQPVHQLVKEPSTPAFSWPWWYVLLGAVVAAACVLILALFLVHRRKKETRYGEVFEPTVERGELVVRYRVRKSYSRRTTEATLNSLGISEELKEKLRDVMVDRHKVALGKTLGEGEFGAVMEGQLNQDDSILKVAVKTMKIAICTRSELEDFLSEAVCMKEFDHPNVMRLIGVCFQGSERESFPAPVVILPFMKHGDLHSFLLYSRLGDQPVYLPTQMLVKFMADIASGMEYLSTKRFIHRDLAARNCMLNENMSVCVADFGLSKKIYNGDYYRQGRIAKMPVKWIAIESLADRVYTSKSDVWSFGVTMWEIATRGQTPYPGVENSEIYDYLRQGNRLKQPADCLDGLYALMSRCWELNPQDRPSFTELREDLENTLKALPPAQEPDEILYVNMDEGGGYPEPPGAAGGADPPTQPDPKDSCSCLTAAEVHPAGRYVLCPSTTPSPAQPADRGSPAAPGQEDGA
Where a name gives a salt, the structure may show the parent alone.

# COMPOUND, IC50
measured = [
    ("CC(C)C(=O)N1CCC(c2cc(-c3ccc(NC(=O)c4cn(C(C)C)c(=O)n(-c5ccccn5)c4=O)cc3)c3c(N)ncnn23)CC1 [Compound I maleate salt]", "≤ 5 nM"),
    ("CC(C)C(=O)N1CCC(c2cc(-c3ccc(NC(=O)c4cn(C(C)C)c(=O)n(-c5ccccc5)c4=O)cc3)c3c(N)ncnn23)CC1 [Compound II hemi-sulfuric acid salt]", "≤ 5 nM"),
]

---

# EXPERIMENT: Solubility of Compound I maleate salt in solvents (saturated solution, HPLC)
# Assay type: physicochemical
# COND: 25 °C, organic solvent or mixture, thermodynamic from solid; solvent IPAc; 25±1° C., 48 hours
Structures can show the parent of a compound that is named as a salt.
REPORTED_PROPERTY: solubility at 48 h (µg/mL)

# COMPOUND, RECORDED_VALUE
rows = [
    ("CC(C)C(=O)N1CCC(c2cc(-c3ccc(NC(=O)c4cn(C(C)C)c(=O)n(-c5ccccn5)c4=O)cc3)c3c(N)ncnn23)CC1 [Compound I maleate salt]", 270),
]

---

# EXPERIMENT: Solubility of Compound I maleate salt in solvents (saturated solution, HPLC)
# Format: physicochemical
# COND: 25 °C, organic solvent or mixture, thermodynamic from solid; solvent MeCN; 25±1° C., 48 hours
Where a name gives a salt, the structure may show the parent alone.
REPORTED_PROPERTY: solubility at 48 h

# COMPOUND, RECORDED_VALUE
rows = [
    ("CC(C)C(=O)N1CCC(c2cc(-c3ccc(NC(=O)c4cn(C(C)C)c(=O)n(-c5ccccn5)c4=O)cc3)c3c(N)ncnn23)CC1 [Compound I maleate salt]", "280 µg/mL"),
]

---

# EXPERIMENT: Solubility of Compound I maleate salt in solvents (saturated solution, HPLC)
# Format: physicochemical
# COND: 25 °C, organic solvent or mixture, thermodynamic from solid; solvent 10% DCM/90% MeOH (V/V); 25±1° C., 48 hours
Structures can show the parent of a compound that is named as a salt.

# COMPOUND, solubility at 48 h, µg/mL
data = [
    ("CC(C)C(=O)N1CCC(c2cc(-c3ccc(NC(=O)c4cn(C(C)C)c(=O)n(-c5ccccn5)c4=O)cc3)c3c(N)ncnn23)CC1 [Compound I maleate salt]", 1880),
]

---

# EXPERIMENT: Solubility of Compound I maleate salt in solvents (saturated solution, HPLC)
# Format: physicochemical
# COND: 25 °C, organic solvent or mixture, thermodynamic from solid; solvent MTBE; 25±1° C., 48 hours
Counter-ions that a name gives are not always drawn.
REPORTED_PROPERTY: solubility at 48 h (µg/mL)

# COMPOUND, RECORDED_VALUE
measured = [
    ("CC(C)C(=O)N1CCC(c2cc(-c3ccc(NC(=O)c4cn(C(C)C)c(=O)n(-c5ccccn5)c4=O)cc3)c3c(N)ncnn23)CC1 [Compound I maleate salt]", 80),
]
